Every entry's value here was drawn from the supplement of paper PMC10567573.

B1: CAMK2A (parent)
chain: ILLVGYPPFWDEDQHRLYKQIKAG

variants of: B1; assay: protein stability index of a GFP-peptide fusion (GPS, HEK-293T) (PSI 1-6); higher = more stable; settings: c terminus: a fixed tail appended;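 further: lentivirally expressed fusions sorted by FACS into six bins by GFP to DsRed ratio, PSI derived from sequencing read proportions per bin multiplied by bin number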
Kindly return TRUE if reported protein stability index is no lower than 2; return FALSE if it is lower.

Solved cases (10 shown):
R16N: TRUE
P7H: TRUE
Q14L: TRUE
L3D: TRUE
A23P: FALSE
L2D: TRUE
G24R: TRUE
D13A: TRUE
A23S: TRUE
L17S: FALSE

Let's switch to this variant now.
Evaluate `P8T` : protein stability index at minimum 2?
FALSE
